Organism: Rattus norvegicus
assay-summary: Open TG-GATES - Regimen: Single
Format: toxicity, organism-based, Sprague-Dawley
Parameters: regimen Single, gender Male, age 6 weeks
measurement-setup: in vivo, po, 0 mg/kg, 3 h, tissue Plasma, route gavage, dose level Control
property-label: RALB (g/dL)
Note: unit g/dL is implicit; provide only the numeric part.

(Q) Provide only the value of recorded RALB for CCC(C)(C)C(=O)O[C@H]1C[C@@H](C)C=C2C=C[C@H](C)[C@H](CC[C@@H]3C[C@@H](O)CC(=O)O3)[C@H]21
(A) 3.5

(Q) Fill in reported RALB for this entry: Oc1ncnc2[nH]ncc12
(A) 3.7

(Q) Look up and report measured RALB for this entry: CC(=O)Oc1cc(C(C)C)c(OCCN(C)C)cc1C
(A) 3

(Q) State its RALB for this molecule: C[C@]12CCC(=O)C=C1CC[C@@H]1[C@@H]2CC[C@@]2(C)[C@H]1CC[C@]2(C)O
(A) 2.6

(Q) Supply measured RALB of CCc1oc2ccccc2c1C(=O)c1cc(I)c(O)c(I)c1 in your reply.
(A) 3.8

(Q) Input CC(=N)S [THIOACETAMIDE] , output reported RALB.
(A) 3.7

---

Give measured gamma-GTP for each item. Keep answers brief.
Organism: Rattus norvegicus
assay-summary: Open TG-GATES - Regimen: Daily Repeat
Type: toxicity, organism-based, Sprague-Dawley
Design: regimen Daily Repeat, gender Male, age 6 weeks
measurement-setup: in vivo, po, 100 mg/kg, […], tissue Plasma, route gavage, dose level Low, time 7 day
Respond with the figure and its unit, in that order.

(Q) Note gamma-GTP for the compound shown: CC(C)(S)[C@@H](N)C(=O)O
(A) 1.2 IU/L

(Q) Identify measured gamma-GTP corresponding to CCN1CCCC1CNC(=O)c1cc(S(N)(=O)=O)ccc1OC (centres undefined) [SULPIRIDE]
(A) 1 IU/L

(Q) Return value of gamma-GTP for input O=C(O)c1cccnc1 , no commentary.
(A) 1.4 IU/L

(Q) Tell me its gamma-GTP given O=C(N[C@H](CO)[C@H](O)c1ccc([N+](=O)[O-])cc1)C(Cl)Cl as the entry.
(A) 1.2 IU/L

---

Species: Rattus norvegicus
assay-summary: Open TG-GATES - Regimen: Daily Repeat
Assay type: toxicity, organism-based, Sprague-Dawley
Parameters: regimen Daily Repeat, gender Male, age 6 weeks
measurement-setup: in vivo, po, 0 mg/kg, […], tissue Plasma, route gavage, dose level Control, time 14 day
Please provide measured A/G for the entries that follow.
Would you mind answering with just the numeric figure?

(Q) Quote A/G reported for CCN1CCCC1CNC(=O)c1cc(S(N)(=O)=O)ccc1OC (configuration not stated) [SULPIRIDE] please.
(A) 0.8

(Q) Read the entry Nc1nc(N)c2nc(-c3ccccc3)c(N)nc2n1 and write its reported A/G.
(A) 0.8

(Q) Find the measured A/G of C[C@]12CCC(=O)C=C1CC[C@@H]1[C@@H]2CC[C@@]2(C)[C@H]1CC[C@]2(C)O and report it.
(A) 0.8

(Q) Hello, please tell me recorded A/G for this one: CCSCC[C@H](N)C(=O)O
(A) 1.5

(Q) Please report A/G for the following molecule: CC(C)(S)[C@@H](N)C(=O)O
(A) 0.9

(Q) Give me measured A/G, please, for this molecule: CN1C(=O)OC(C)(C)C1=O
(A) 0.8

(Q) Look up A/G of CC(=N)S [THIOACETAMIDE] and report it.
(A) 2

(Q) // Input: CCc1oc2ccccc2c1C(=O)c1cc(I)c(O)c(I)c1 . Output its A/G only.
(A) 1.6

(Q) Specify A/G for CC(=O)Oc1cc(C(C)C)c(OCCN(C)C)cc1C and stop.
(A) 1.1

(Q) Read the entry O=C(N[C@H](CO)[C@H](O)c1ccc([N+](=O)[O-])cc1)C(Cl)Cl and write its reported A/G.
(A) 0.8

(Q) Consider the molecule CC(C)C(=O)Nc1ccc([N+](=O)[O-])c(C(F)(F)F)c1 [FLUTAMIDE] . State its measured A/G.
(A) 1.5

(Q) Fill in A/G for record C[C@](N)(Cc1ccc(O)c(O)c1)C(=O)O
(A) 0.8

---

Species on record: Rattus norvegicus
assay-summary: Open TG-GATES - Regimen: Daily Repeat
Type: toxicity, organism-based, Sprague-Dawley
Parameters: regimen Daily Repeat, gender Male, age 6 weeks
measurement-setup: in vivo, po, 300 mg/kg, […], tissue Plasma, route gavage, dose level Middle, time 28 day
property-label: TC (mg/dL)
Respond numerically; units are mg/dL and should not be typed.

(Q) Let me know recorded TC for O=C(O)c1cccnc1 , thanks.
(A) 69.4

(Q) Name the recorded TC of the item CCN1CCCC1CNC(=O)c1cc(S(N)(=O)=O)ccc1OC (centres undefined) [SULPIRIDE] in your answer.
(A) 63.2

(Q) Quick one: give measured TC for CC(C)(S)[C@@H](N)C(=O)O
(A) 77

(Q) Consider the compound O=C(N[C@H](CO)[C@H](O)c1ccc([N+](=O)[O-])cc1)C(Cl)Cl . State its measured TC.
(A) 68

---

Exercise: state measured LDH for each of the compounds provided.
Species: Rattus norvegicus
assay-summary: Open TG-GATES - Regimen: Single
Assay type: toxicity, organism-based, Sprague-Dawley
Set-up: regimen Single, gender Male, age 6 weeks
measurement-setup: in vivo, po, 0 mg/kg, 6 h, tissue Plasma, route gavage, dose level Control
Numeric answer only, unit IU/L assumed.

(Q) For the compound C#C[C@]1(O)CC[C@H]2[C@@H]3CCc4cc(O)ccc4[C@H]3CC[C@@]21C [ETHINYL ESTRADIOL] , report LDH.
(A) 53.6

(Q) State, in one line, measured LDH of CCc1oc2ccccc2c1C(=O)c1cc(I)c(O)c(I)c1 [BENZIODARONE]
(A) 81.2

(Q) Indicate the recorded LDH value for this compound: CCSCC[C@H](N)C(=O)O [ETHIONINE]
(A) 189

(Q) Tell me measured LDH for CN1C(=O)OC(C)(C)C1=O [TRIMETHADIONE] please.
(A) 109.8

(Q) Give LDH for O=C(N[C@H](CO)[C@H](O)c1ccc([N+](=O)[O-])cc1)C(Cl)Cl [CHLORAMPHENICOL]
(A) 62.8

---

Please respond with reported Plat for every item in the list.
Species on record: Rattus norvegicus
assay-summary: Open TG-GATES - Regimen: Daily Repeat
Type: toxicity, organism-based, Sprague-Dawley
Design: regimen Daily Repeat, gender Male, age 6 weeks
measurement-setup: in vivo, po, 0 mg/kg, […], tissue Blood, route gavage, dose level Control, time 7 day
Output spec: scalar in x10_4/uL, unitless text.

(Q) Determine its reported Plat: CC(C)(S)[C@@H](N)C(=O)O
(A) 121.1

(Q) Return reported Plat. Input molecule: Oc1ncnc2[nH]ncc12
(A) 118.1

(Q) Input CC(=O)Oc1cc(C(C)C)c(OCCN(C)C)cc1C , output reported Plat.
(A) 119.6

(Q) Please look at this molecule and report its Plat: O=C(N[C@H](CO)[C@H](O)c1ccc([N+](=O)[O-])cc1)C(Cl)Cl
(A) 131.7

(Q) Return value of Plat for input CC(=N)S [THIOACETAMIDE] , no commentary.
(A) 111.5

(Q) Identify measured Plat corresponding to O=C(O)c1cccnc1
(A) 116.1

(Q) Give reported Plat value for C[C@](N)(Cc1ccc(O)c(O)c1)C(=O)O
(A) 114.7

(Q) Provide only the value of recorded Plat for CCC(C)(C)C(=O)O[C@H]1C[C@@H](C)C=C2C=C[C@H](C)[C@H](CC[C@@H]3C[C@@H](O)CC(=O)O3)[C@H]21
(A) 115.6

(Q) Identify Plat associated with the molecule Nc1nc(N)c2nc(-c3ccccc3)c(N)nc2n1
(A) 136.4

(Q) State its Plat for this molecule: CCc1oc2ccccc2c1C(=O)c1cc(I)c(O)c(I)c1
(A) 125.2

---

Organism: Rattus norvegicus
assay-summary: Open TG-GATES - Regimen: Single
Format: toxicity, organism-based, Sprague-Dawley
Set-up: regimen Single, gender Male, age 6 weeks
measurement-setup: in vivo, po, 0 mg/kg, 3 h, tissue Plasma, route gavage, dose level Control
Please assign condition not met whenever ALP is at or above 1000 IU/L, and condition met whenever it is below.

(Q) # TODO verify ALP < 1000 IU/L strictly for this molecule: CC(=N)S [THIOACETAMIDE]
(A) condition met

(Q) Please determine if CCc1oc2ccccc2c1C(=O)c1cc(I)c(O)c(I)c1 is below 1000 IU/L in terms of ALP.
(A) condition met

(Q) hey, is ALP for CC(C)C(=O)Nc1ccc([N+](=O)[O-])c(C(F)(F)F)c1 [FLUTAMIDE] lower than 1000 IU/L or not?
(A) condition not met

(Q) Here's an entry: O=C(O)c1cccnc1 . Is its ALP below 1000 IU/L?
(A) condition not met

(Q) Bench note: check whether C[C@](N)(Cc1ccc(O)c(O)c1)C(=O)O shows ALP below 1000 IU/L
(A) condition not met

(Q) Please state whether ALP is below 1000 IU/L for C[C@]12CCC(=O)C=C1CC[C@@H]1[C@@H]2CC[C@@]2(C)[C@H]1CC[C@]2(C)O
(A) condition not met

(Q) Find out if reported ALP for Nc1nc(N)c2nc(-c3ccccc3)c(N)nc2n1 is less than 1000 IU/L
(A) condition not met

(Q) # check: ALP < 1000 IU/L for Oc1ncnc2[nH]ncc12
(A) condition met

(Q) Strictly below 1000 IU/L: is that where ALP of CCC(C)(C)C(=O)O[C@H]1C[C@@H](C)C=C2C=C[C@H](C)[C@H](CC[C@@H]3C[C@@H](O)CC(=O)O3)[C@H]21 sits?
(A) condition met

(Q) # check: ALP < 1000 IU/L for CN1C(=O)OC(C)(C)C1=O
(A) condition not met

(Q) For C#C[C@]1(O)CC[C@H]2[C@@H]3CCc4cc(O)ccc4[C@H]3CC[C@@]21C , is the recorded ALP below the cut-off of 1000 IU/L?
(A) condition not met

(Q) Quick check: does CC(C)(S)[C@@H](N)C(=O)O have ALP under 1000 IU/L?
(A) condition not met

(Q) Does CC(=O)Oc1cc(C(C)C)c(OCCN(C)C)cc1C have ALP strictly under 1000 IU/L?
(A) condition not met

(Q) Field: below-cutoff. Rule: recorded ALP strictly less than 1000 IU/L. Subject: CCN1CCCC1CNC(=O)c1cc(S(N)(=O)=O)ccc1OC (stereo unspecified) [SULPIRIDE]
(A) condition not met

(Q) Please state whether ALP is below 1000 IU/L for O=C(N[C@H](CO)[C@H](O)c1ccc([N+](=O)[O-])cc1)C(Cl)Cl
(A) condition not met

Values from ChEMBL document CHEMBL3885861
